target: PcrV of P. aeruginosa strain PA103 (on TTSS-induced bacteria) (Pseudomonas aeruginosa strain PA103); test: cell-based or functional assay
parameterMeasured: IC50 value (M), P3X63 cytotoxicity, MOI 12
Answers are plain numbers, in M.

As a guide, the following entries are already answered.
Nanobody 308 (6B05-40GS-1E11) (VHH) EVQLVESGGGLVQPGGSLRLSCAASGSIFSINTMGWYRQAPGKQRELVSTITSNLVPHYADSVQGRFTISRDNARNTVYLQMNSLKPQDTAHYYCNAWARSSGATPYTNYWGQGTLVTVSSGGGGSGGGGSGGGGSGGGGSGGGGSGGGGSGGGGSGGGGSEVQLVESGGGLVQPGGSLRLSCAASGSTRSVNPMAWFRQAPGRQREWVATISRSGYATYADSVKGRFTISGDNAKSSVYLQMNSLKPEDTAVYYCVTGTYWGQGTLVTVSS :: 1.8e-10
Nanobody 258 (13F07-40GS-14E10) (VHH) EVQLVESGGGLVQAGGSLRLSCAASGNTFSTNPMYWYRQAEGKQRELVASISSRGITNYADSVRGRFSISRDNTKDTVYLQMNSLKPEDTAVYYCRLASLSSGTVYWGKGTLVTVSSGGGGSGGGGSGGGGSGGGGSGGGGSGGGGSGGGGSGGGGSEVQLVESGGGLVQPGGSLRLSCAASGRIFSINTMGWYRQAPGKQRELVAGVTINAITNYADSVKGRFTISRDNAKNTVWLQMNSLKPEDTAVYYCHAWARSSGSAPYSQNWGQGTLVTVSS :: 9e-11

Moving on to another binder below.
Problem: Would you mind telling me what IC50 value (M), P3X63 cytotoxicity, MOI 12 value was observed for Nanobody 283 (7E09-40GS-6B05) (VHH) EVQLVESGGGLVQAGGSLRLSCAASGRTFSSYIMGWFRQAPGKAREFVADITWGQRPYYADSVKGRFTISRDNAKNTVYLEMNSLKPEDTAVYYCAADLGVVIREEHAYWGQGTLVTVSSGGGGSGGGGSGGGGSGGGGSGGGGSGGGGSGGGGSGGGGSEVQLVESGGGLVQPGGSLRLSCAASGSIFSINTMGWYRQAPGKQRELVSTITSNLVPHYADSVQGRFTISRDNARNTVYLQMNSLKPQDTAHYYCNAWARSSGATPYTNYWGQGTLVTVSS ?
Solution: 7.6e-11
